Listing of recorded GI50 by entry.
- Test system: OVCAR-4
- Assay procedure: NCI tumour cell line growth inhibition, 48 h
Calls of active or inactive are those of the source. No stated cut-off is given here; in the data, active = GI50 up to about 1.1 µM and inactive = higher.

Completed entries (count: 10):
C=C1C(=O)O[C@H]2C3C(=C(C)CC[C@@H]12)C(=O)[C@@H]1OC31C (some centres undefined) ... 1.58 µM (inactive)
Cc1c(C)n(-c2ccccc2)c2nc([S+](C)[O-])nc([S+](C)[O-])c12 (centres undefined) ... 4.85 µM (inactive)
CCOC(=O)C1C(c2ccc(OC)cc2)c2c(nn(-c3ccccc3)c2O)CC1(C)O (centres undefined) ... 96.6 µM (inactive)
O=C(CC(C(=O)O)N1CCOCC1)c1ccccc1 (centres undefined) ... 23 µM (inactive)
Nc1nc(O)c(N)c(NCCOCP(=O)(O)O)n1 ... > 100 µM (inactive)
CCOC(=O)CSC1NC(C(=O)OC)CC1OC (centres undefined) ... > 100 µM (inactive)
Cc1ccc2c(ccc3[nH]cc(CNc4ccc(NS(C)(=O)=O)cc4)c32)n1 ... 21.7 µM (inactive)
CC(C)(C)C1CCC2c3c([nH]c4ncccc34)C3C(=O)N(c4ccccc4)C(=O)C3C2C1 (centres undefined) ... > 100 µM (inactive)
CO/N=C\c1cc(O)c(O)c(/C=N/OC)c1 ... 24.9 µM (inactive)
CC(C)c1cccc(=O)c(O)c1 ... 7.23 µM (inactive)

Assay OVCAR-4, sample O=C1c2ccccc2C2CCC1c1ccccc12 (centres undefined) , GI50 read: 30.1 µM (inactive)

Measured on OVCAR-4, O=C1/C(=C/c2ccccc2S)N=C(c2ccccc2)N1c1nc2c(Cl)cc(Cl)cc2s1 has a documented GI50 of 28.4 µM (inactive)

Response field GI50 (OVCAR-4) for item c1ccc(/N=C2\c3ccsc3/C(=N/c3ccccc3)c3ccsc32)cc1 : 1.77 µM (inactive)

The recorded GI50 with OVCAR-4 for C=C1CCC([N+](=O)[O-])[C@](C)(N=O)CC[C@@H]2C1CC2(C)C (some centres undefined) was 24.7 µM (inactive)

* * *

- System: HCC 2998
- Assay procedure: NCI tumour cell line growth inhibition, 48 h
Activity calls are given as the source filed them. Cut-off read from the data, not from the text of the source: active = GI50 up to about 1.1 µM and inactive = higher.
Reported property: GI50

These recorded examples may help you get a feel for the data.
C=CC1(NS(=O)(=O)c2ccc(C)cc2)CCC(C(C)(C)C)CC1 (configuration not stated) ... > 100 µM (inactive)
Cc1cc(=O)n2c(cc3cccccc32)n1 ... > 100 µM (inactive)
c1ccc2c3nnc(c2c1)SCCCSc1nnc(c2ccccc12)SCCCS3 ... > 100 µM (inactive)
Cc1ccc(NC(=O)CC/C(CC(=O)C(C)(C)C)=N/Nc2nnc(C)n2N)cc1C ... > 100 µM (inactive)
COc1ccc([C@@H]2C[C@@H]3C(=O)OC(=O)[C@@H]3c3c2c2ccccc2n3C)cc1 ... > 100 µM (inactive)

Per the record, Clc1ccc(COC(Cn2ccnc2)c2ccc(Cl)cc2Cl)c(Cl)c1 (configuration not stated) has GI50 of 17.1 µM (inactive)

The recorded GI50 for entry CC(C)(C)OC(=O)NC(Cc1ccccc1)C(=S)N1CCCC1 (configuration not stated) equals > 100 µM (inactive)

* * *

- Tested on: HL-60
- Assay procedure: NCI tumour cell line growth inhibition, 48 h
Calls of active or inactive are those of the source. No stated cut-off is given here; in the data, active = GI50 up to about 1.1 µM and inactive = higher.
// classify into 1 for active, 0 for inactive

State the result this test recorded for CC(N)C(C)c1ccccc1 (stereo not given) . 0

Which outcome was assigned to CC(=O)c1c(SCCN2CCCCCC2)n(-c2ccccc2)c(=S)n(-c2ccccc2)c1=O in this test? 1

Dear colleague, could you share the recorded outcome for CN(C)c1ccc(/C=N/N=C2\C(=O)Nc3c(Cl)cc(Cl)cc32)cc1 when you have a moment? 0

Fill in: this test's call for Cc1nc(N)sc1C(=O)/C=C\c1ccc2c(c1)OCO2 is ___ 0

How was NC(CCCNc1cccc(O)c1)C(=O)O (stereo not given) classified in this test? 0

For [N-]=[N+]=Nc1ccccc1Oc1ccccc1 , what call appears in the results of this test? 0

What classification did c1ccc(/N=C2\c3ccsc3/C(=N/c3ccccc3)c3ccsc32)cc1 end up with in this test? 0

Per the records of this test, what outcome belongs to C[C@@H](C[C@@H](O)[C@H](O)C(C)(C)O)[C@H]1CC=C2[C@]3(C)[C@H](O)C[C@H]4C(C)(C)[C@H](O)CC[C@]4(C)[C@H]3CC[C@@]21C ? 0
